// provenance: ChEMBL document CHEMBL3352578

assay: Metabolic stability in human liver microsomes assessed as compound metabolized at 5 uM after 15 mins by MS/MS analysis in presence of NADPH; assay type: ADME; conditions: read-out: Drug metabolism
Each record is given Yes if its reported metabolised at 0.25 h, 5 µM is strictly below 50%. Records at or above 50% are given No.

>>> label_value("N#Cc1c(N2CCC(c3ccccc3Cl)CC2)ccn(CC2CC2)c1=O")
"Yes"
>>> label_value("N#Cc1c(N2CCC(c3ccc(F)cc3)CC2)ccn(CC2CC2)c1=O")
"Yes"
>>> label_value("CC(C)CCn1ccc(CCc2ccccc2)c(C#N)c1=O")
"No"
>>> label_value("CC(C)CCn1ccc(N2CCCCC2)c(C#N)c1=O")
"No"
>>> label_value("CC(C)Cn1ccc(N2CCC(c3ccccc3)CC2)c(Cl)c1=O")
"Yes"
>>> label_value("CC(C)CCn1ccc(N2CCCC(c3ccccc3)C2)c(C#N)c1=O (centres undefined)")
"No"
>>> label_value("CC(C)CCn1ccc(N2CCC(c3ccccc3)CC2)c(C#N)c1=O")
"Yes"
>>> label_value("N#Cc1c(N2CCC(c3ccccc3)CC2)ccn(CC2CCC2)c1=O")
"Yes"
>>> label_value("O=c1c(Cl)c(N2CCC(c3ccccc3)CC2)ccn1CC1CC1")
"Yes"
